# Study system: cathepsin B (Homo sapiens, UniProt P07858)
# Run description: recombinant cathepsin B β-secretase assay (Z-VKM-MCA)
# Type: biochemical
# Design: purchased
# Cond: recombinant human cathepsin B (3.5 ng), Z-V-K-M-MCA substrate (100 μM); read-out: IC50 inhibitory concentration
Peptide text beside a SMILES is read from it. * marks the point of attachment. Cbz = O=C(OCc1ccccc1)*
Give measured IC50 for each item. Keep answers brief.
Answers are plain numbers, in nM.

>  <Compound>
CC(=O)NCCCCC(C=O)NC(=O)C(NC(=O)OCc1ccccc1)C(C)C (stereo not drawn)

>  <Reported measurement>
31

$$$$
>  <Compound>
O=CC(CO)NC(=O)C(CSC(=O)OCc1ccccc1)NC(=O)OCc1ccccc1 (stereo not drawn) [Z-C(Z)S-ald] (Cbz-Cys(Cbz)-Ser-aldehyde; configuration not given here)

>  <Reported measurement>
67

$$$$
>  <Compound>
O=CC(CO)NC(=O)C(CCC(=O)NC(c1ccccc1)(c1ccccc1)c1ccccc1)NC(=O)OCc1ccccc1 (stereo not drawn)

>  <Reported measurement>
58

$$$$

Please state IC50 for every compound in the list that follows.
1. CC(C)C(C=O)NC(=O)C(Cc1ccc(O)cc1)NC(=O)OCc1ccccc1 (stereo not drawn) [Z-YV-ald] (Cbz-Tyr-Val-aldehyde; configuration not given here)
2. CC(=O)NCCCCC(C=O)NC(=O)C(CSC(=O)OCc1ccccc1)NC(=O)OCc1ccccc1 (stereo not drawn) [Z-C(Z)K(Ac)-ald] (Cbz-Cys(Cbz)-Lys(Ac)-aldehyde; configuration not given here)
3. O=CC(CO)NC(=O)C(Cc1ccc(O)cc1)NC(=O)OCc1ccccc1 (stereo not drawn) [Z-YS-ald] (Cbz-Tyr-Ser-aldehyde; configuration not given here)

Reply:
1. 65
2. 91
3. 37
